Assign log10 Ki to each entry below.
- system-tested: Melanocortin receptor 4 (Mus musculus, UniProt P56450)
- Sequence (P56450 whole entry): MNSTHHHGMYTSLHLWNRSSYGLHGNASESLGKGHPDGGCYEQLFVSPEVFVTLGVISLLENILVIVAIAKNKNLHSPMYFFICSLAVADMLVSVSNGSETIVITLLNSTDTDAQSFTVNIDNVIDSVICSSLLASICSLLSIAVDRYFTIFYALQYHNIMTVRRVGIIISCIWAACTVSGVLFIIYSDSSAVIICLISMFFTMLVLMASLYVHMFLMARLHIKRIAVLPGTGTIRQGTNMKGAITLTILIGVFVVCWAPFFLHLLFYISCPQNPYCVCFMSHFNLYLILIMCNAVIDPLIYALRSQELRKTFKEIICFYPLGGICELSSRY
- assay-explanation: Antagonist activity at mouse melanocortin receptor 4 expressed in HEK293 cells assessed as inhibition of NDP-MSH-induced cAMP accumulation incubated for 2 hrs by cAMP Alpha-screen assay based Schild analysis
- Type: functional, cell-based
Square brackets hold non-standard residues; d marks the D form. Peptide text beside a SMILES is read from it. dPhe(4-I) = N[C@H](Cc1ccc(I)cc1)C(=O)O; 2Nal = N[C@@H](Cc1ccc2ccccc2c1)C(=O)O; d2Nal = N[C@H](Cc1ccc2ccccc2c1)C(=O)O
Heads up: the numbers are on a log10 scale; they represent Ki in nM.

Lab note: measured log10 Ki of CC(=O)N[C@H](Cc1ccc(I)cc1)C(=O)N[C@H](Cc1ccc2ccccc2c1)C(=O)N[C@@H](Cc1ccc2ccccc2c1)C(=O)N[C@@H](CCCNC(=N)N)C(N)=O (Ac-[dPhe(4-I)][d2Nal][2Nal]R-NH2) was 3.20

Measured log10 Ki, CC(=O)N[C@H](Cc1ccc(I)cc1)C(=O)N[C@@H](CCCNC(=N)N)C(=O)N[C@H](Cc1ccc2ccccc2c1)C(=O)N[C@H](Cc1ccc2ccccc2c1)C(N)=O (Ac-[dPhe(4-I)]R[d2Nal][d2Nal]-NH2) : 2.30

molecule CC(=O)N[C@H](Cc1ccc(I)cc1)C(=O)N[C@H](Cc1ccc2ccccc2c1)C(=O)N[C@@H](Cc1c[nH]c2ccccc12)C(=O)N[C@H](CCCCN)C(N)=O (Ac-[dPhe(4-I)][d2Nal]W[dK]-NH2) , log10 Ki observed: 2.40

response.value for CC(=O)N[C@H](Cc1ccc(I)cc1)C(=O)N[C@@H](CCCNC(=N)N)C(=O)N[C@@H](Cc1c[nH]c2ccccc12)C(=O)N[C@H](Cc1ccc2ccccc2c1)C(N)=O (Ac-[dPhe(4-I)]RW[d2Nal]-NH2) (field: log10 Ki) = 1.40

Documented log10 Ki of CC(=O)N[C@H](Cc1ccc(I)cc1)C(=O)N[C@@H](CCCNC(=N)N)C(=O)N[C@H](Cc1ccc(I)cc1)C(=O)N[C@H](CCCCN)C(N)=O (Ac-[dPhe(4-I)]R[dPhe(4-I)][dK]-NH2) : 0.51

Entry under test: CC(=O)N[C@H](Cc1ccc(I)cc1)C(=O)N[C@@H](CCCNC(=N)N)C(=O)N[C@H](Cc1ccc(I)cc1)C(=O)N[C@H](Cc1ccc2ccccc2c1)C(N)=O (Ac-[dPhe(4-I)]R[dPhe(4-I)][d2Nal]-NH2) . Its log10 Ki was 2.40

The recorded log10 Ki for entry CC(=O)N[C@H](Cc1ccc(I)cc1)C(=O)N[C@@H](CCCNC(=N)N)C(=O)N[C@@H](Cc1ccc2ccccc2c1)C(=O)N[C@H](Cc1ccc2ccccc2c1)C(N)=O (Ac-[dPhe(4-I)]R[2Nal][d2Nal]-NH2) equals 2.30

Sample CC(=O)N[C@H](Cc1ccc(I)cc1)C(=O)N[C@@H](CCCNC(=N)N)C(=O)N[C@@H](Cc1c[nH]c2ccccc12)C(=O)N[C@H](CCCCN)C(N)=O (Ac-[dPhe(4-I)]RW[dK]-NH2) ; log10 Ki observed: 1.40

# log10 Ki of CC(=O)N[C@H](Cc1ccc(I)cc1)C(=O)N[C@@H](CCCNC(=N)N)C(=O)N[C@H](Cc1ccc(I)cc1)C(=O)N[C@@H](CCCNC(=N)N)C(N)=O (Ac-[dPhe(4-I)]R[dPhe(4-I)]R-NH2) = 0.51

Reported log10 Ki for CC(=O)N[C@H](Cc1ccc(I)cc1)C(=O)N[C@@H](CCCNC(=N)N)C(=O)N[C@@H](Cc1c[nH]c2ccccc12)C(=O)N[C@@H](CCCNC(=N)N)C(N)=O (Ac-[dPhe(4-I)]RWR-NH2) was 0.30

Entry CC(=O)N[C@H](Cc1ccc(I)cc1)C(=O)N[C@H](Cc1ccc2ccccc2c1)C(=O)N[C@@H](Cc1c[nH]c2ccccc12)C(=O)N[C@@H](CCCNC(=N)N)C(N)=O , log10 Ki reported as 3.40
